Assay: Permeability of compound across basolateral to apical side in dog wild type MDCK cells
Assay type: ADME, cell-based, Canis lupus familiaris
Details: read-out: permeability
property: Papp B→A (×10⁻⁶ cm/s)
One number for each entry, in ×10⁻⁶ cm/s.

Completed entries (count: 4):
{"structure-notation": "CNc1nccc(-c2n[nH]c3nc(N4CCC(C)(N)CC4)cnc23)c1Cl", "Papp B→A, ×10⁻⁶ cm/s": 8}
{"structure-notation": "C[C@@H]1OCC2(CCN(c3cnc4c(-c5cccc(Cl)c5Cl)n[nH]c4n3)CC2)[C@@H]1N", "Papp B→A, ×10⁻⁶ cm/s": 10}
{"structure-notation": "N[C@@H]1CCCC12CCN(c1nc3[nH]nc(-c4cccc(Cl)c4Cl)c3c(=O)[nH]1)CC2", "Papp B→A, ×10⁻⁶ cm/s": 3.64}
{"structure-notation": "CC1(N)CCN(c2cnc3c(-c4cccc(Cl)c4Cl)n[nH]c3n2)CC1", "Papp B→A, ×10⁻⁶ cm/s": 6.8}

Please look at the following molecule next.
# input Which Papp B→A is listed for "CCNc1nccc(-c2n[nH]c3nc(N4CCC5(CC4)CO[C@@H](C)[C@H]5N)cnc23)c1Cl" ?
# output 25

====

Test: Volume of distribution at steady state in Sprague-Dawley rat measured at 0.083 to 24 hrs by LC-MS/MS analysis
Assay type: ADME
Conditions: in vivo, time 0.083-24 hrs, read-out: Vdss
Field: Vd. Provide a value for each of the compounds that follow.
Answers are plain numbers, in L/kg.

{"compound": "Cc1nc(N2CCC3(CC2)CO[C@@H](C)[C@H]3N)cc(=O)n1-c1cccc(Cl)c1Cl (stereo in doubt)", "reading": 2.5}

Please look at the following compound next.
# input Which Vd is listed for "Cc1nc(N2CCC3(CC2)CO[C@@H](C)[C@H]3N)c(Cl)c(=O)n1-c1cccc(Cl)c1Cl" ?
# output 3.7

====

Assay: AUC (0 to 24 hrs) in Sprague-Dawley rat 1 mg/kg, iv measured at 0.083 to 24 hrs by LC-MS/MS analysis
Assay type: ADME, organism-based
Set-up: dose 1 mg/kg, time 0.083-24 hrs, route iv
Settings: in vivo
property: AUC(0-t) (µM·h)
Numbers only, in µM·h.

# input Which AUC(0-t) is listed for "CC1(N)CCN(c2cnc3c(-c4cccc(Cl)c4Cl)n[nH]c3n2)CC1" ?
# output 2

====

Field: CLint scaled. Provide a value for each of the compounds that follow.
Assay: Metabolic stability in monkey microsome assessed as intrinsic clearance incubated for 45 mins in presence of NADPH regenerating system by LC-MS/MS analysis
Assay type: ADME, Macaca mulatta
Conditions: rhesus monkey, microsomes, read-out: CLH
One number for each entry, in mL/min/kg.

{"compound": "Cc1nc(N2CCC3(CC2)CO[C@@H](C)[C@H]3N)cc(=O)n1-c1cccc(Cl)c1Cl (stereo in doubt)", "reading": 21}

# input Which CLint scaled is listed for "Cc1nc(N2CCC3(CC2)CO[C@@H](C)[C@H]3N)c(Cl)c(=O)n1-c1cccc(Cl)c1Cl" ?
# output 74

====

Assay: Half life in iv dosed Sprague-Dawley rat measured at 0.083 to 24 hrs by LC-MS/MS analysis
Type: ADME, organism-based
Conditions: in vivo, time 0.083-24 hrs
property: half-life (h)
Give bare numbers, in h.

{"compound": "Cc1nc(N2CCC3(CC2)CO[C@@H](C)[C@H]3N)c(Cl)c(=O)n1-c1cccc(Cl)c1Cl", "units-symbol": "h", "reading": 1.8}

Please look at the following compound next.
# input Which half-life is listed for Cc1nc(N2CCC3(CC2)CO[C@@H](C)[C@H]3N)cc(=O)n1-c1cccc(Cl)c1Cl (stereo in doubt) ?
# output 5.9

====

Assay: Half life in iv dosed CD-1 mouse measured at 0.083 to 24 hrs by LC-MS/MS analysis
Type: ADME, organism-based
Details: in vivo, time 0.083-24 hrs
property: half-life (h)
Give bare numbers, in h.

{"compound": "Cc1nc(N2CCC3(CC2)CO[C@@H](C)[C@H]3N)cc(=O)n1-c1cccc(Cl)c1Cl (stereo in doubt)", "reading": 3.5}

Please look at the following compound next.
# input Which half-life is listed for "Cc1nc(N2CCC3(CC2)CO[C@@H](C)[C@H]3N)c(Cl)c(=O)n1-c1cccc(Cl)c1Cl" ?
# output 6

====

Field: CLint scaled. Provide a value for each of the compounds that follow.
Test: Metabolic stability in Beagle dog microsome assessed as intrinsic clearance incubated for 45 mins in presence of NADPH regenerating system by LC-MS/MS analysis
Type: ADME, Canis lupus familiaris
Conditions: microsomes, read-out: CLH
Give the value; after it, write the unit.

{"compound": "Cc1nc(N2CCC3(CC2)CO[C@@H](C)[C@H]3N)cc(=O)n1-c1cccc(Cl)c1Cl (stereo in doubt)", "CLint scaled": "17 mL/min/kg"}

Please look at the following compound next.
# input Which CLint scaled is listed for "Cc1nc(N2CCC3(CC2)CO[C@@H](C)[C@H]3N)c(Cl)c(=O)n1-c1cccc(Cl)c1Cl" ?
# output 529 mL/min/kg

====

Assay: Oral bioavailability in CD-1 mouse measured at 0.083 to 24 hrs by LC-MS/MS analysis
Type: ADME, organism-based
Conditions: in vivo, time 0.083-24 hrs
Field: bioavailability. Provide a value for each of the molecules that follow.
Answers are plain numbers, in %.

{"molecule": "Cc1nc(N2CCC3(CC2)CO[C@@H](C)[C@H]3N)cc(=O)n1-c1cccc(Cl)c1Cl (stereo in doubt)", "property": "bioavailability", "reading": 99}

# input Which bioavailability is listed for "Cc1nc(N2CCC3(CC2)CO[C@@H](C)[C@H]3N)c(Cl)c(=O)n1-c1cccc(Cl)c1Cl" ?
# output 119

====

Experiment: Oral bioavailability in Sprague-Dawley rat 3 mg/kg measured at 0.083 to 24 hrs by LC-MS/MS analysis
Format: ADME, organism-based
Settings: in vivo, time 0.083-24 hrs
property: bioavailability (%)
One number for each entry, in %.

# input Which bioavailability is listed for "CNc1nccc(-c2n[nH]c3nc(N4CCC(C)(N)CC4)cnc23)c1Cl" ?
# output 38

====

Assay: Clearance in iv dosed Cynomolgus monkey measured at 0.083 to 24 hrs by LC-MS/MS analysis
Format: ADME, organism-based, Macaca fascicularis
Conditions: in vivo, time 0.083-24 hrs
property: clearance (mL/min/kg)
Numbers only, in mL/min/kg.

{"molecule": "Cc1nc(N2CCC3(CC2)CO[C@@H](C)[C@H]3N)cc(=O)n1-c1cccc(Cl)c1Cl (stereo in doubt)", "property": "clearance", "reading": 4.2}

# input Which clearance is listed for "Cc1nc(N2CCC3(CC2)CO[C@@H](C)[C@H]3N)c(Cl)c(=O)n1-c1cccc(Cl)c1Cl" ?
# output 8.3

====

Field: Papp A→B. Provide a value for each of the compounds that follow.
Experiment: Permeability of compound across apical to basolateral side in dog MDCK-MDR1 cells
Assay type: ADME, cell-based, Canis lupus familiaris
Answers are plain numbers, in ×10⁻⁶ cm/s.

{"compound": "Cc1nc(N2CCC3(CC2)CO[C@@H](C)[C@H]3N)c(Cl)c(=O)n1-c1cccc(Cl)c1Cl", "reading": 18}

Please look at the following compound next.
# input Which Papp A→B is listed for Cc1nc(N2CCC3(CC2)CO[C@@H](C)[C@H]3N)cc(=O)n1-c1cccc(Cl)c1Cl (stereo in doubt) ?
# output 12
